Data origin, for the record: the supplement of paper PMC9694430

- Tested on: LOC_OS05G07850-cb002
- protocolSummary: thermal shift delta Tm vs DMSO control; higher = stronger stabilization (binding);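 also: purified Escherichia coli-expressed rice kinase domain construct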
- experimentalSetup: 12.5 µM; protein concentration 2 µM
Counter-ions that a name gives are not always drawn.
propertyName: thermal shift delta Tm (°C)
Could you give me the number in °C? Just the number is fine.

Incoming: Give its thermal shift delta Tm value. Item: CCNC(=O)Nc1ccc(-c2nc(N3CCOC[C@@H]3C)c3c(n2)C(C)(C)S(=O)(=O)C3)cc1
Outgoing: 1.34

Incoming: Give its thermal shift delta Tm value. Item: CC(C)c1cnn2c(NCc3ccccc3-n3cccn3)nc(OC3CCCNC3)nc12 (stereo not given)
Outgoing: 0.48

Incoming: Give its thermal shift delta Tm value. Item: O=C1NC(=O)[C@@H](c2cn3c4c(cccc24)CCC3)[C@@H]1c1c[nH]c2ccccc12 [Tivantinib (ARQ 197)]
Outgoing: 0.25

Incoming: Give its thermal shift delta Tm value. Item: COc1ccc(-c2nc(N3CCOCC3)c3sc(CN(C)c4ncc(C(=O)NO)cn4)cc3n2)cn1
Outgoing: 0.02

Incoming: Give its thermal shift delta Tm value. Item: O=C1NC(=O)/C(=C/c2ccc(-c3ccc(F)cc3O)o2)S1
Outgoing: 6.53

Incoming: Give its thermal shift delta Tm value. Item: COc1ccc(CC(=O)Nc2nc3c(s2)CCc2ccccc2-3)cc1OC
Outgoing: 1.41

Incoming: Give its thermal shift delta Tm value. Item: O=c1c(O)c(-c2ccc(O)c(O)c2)oc2cc(O)cc(O)c12 [Quercetin]
Outgoing: 10.2

Incoming: Give its thermal shift delta Tm value. Item: C[C@H]1[C@H](C)CC[C@]2(C(=O)O)CC[C@]3(C)C(=CC[C@@H]4[C@@]5(C)C[C@@H](O)[C@H](O)[C@@](C)(CO)[C@@H]5CC[C@]43C)[C@H]12 [Asiatic Acid]
Outgoing: 0.11

Incoming: Give its thermal shift delta Tm value. Item: COc1cc2nccc(Oc3ccc(NC(=O)C4(C(=O)Nc5ccc(F)cc5)CC4)cc3)c2cc1OC [Cabozantinib malate (XL184)]
Outgoing: 10.2

Incoming: Give its thermal shift delta Tm value. Item: FC(F)(F)c1ccc(/C=C/c2nc(COc3ccc(CCCCn4ccnn4)cc3)co2)cc1 [Mubritinib (TAK 165)]
Outgoing: 0.65

Incoming: Give its thermal shift delta Tm value. Item: O=C(Nc1cccc(Nc2ncc(Br)c(NCCc3cnc[nH]3)n2)c1)N1CCCC1
Outgoing: 10.4

Incoming: Give its thermal shift delta Tm value. Item: Cc1cc(Nc2ncnc3ccc(-c4ccc(CNCCS(C)(=O)=O)o4)cc23)ccc1Oc1ccn2ncnc2c1 [HER2-Inhibitor-1]
Outgoing: 6.61

Incoming: Give its thermal shift delta Tm value. Item: O=C1Nc2ccc(CN3C(=O)CSC3=O)cc2/C1=C/c1cc(CN2CCOCC2)c[nH]1
Outgoing: 6.39

Incoming: Give its thermal shift delta Tm value. Item: COc1cccc(-c2cc(=O)c3ccccc3o2)c1N
Outgoing: 0.19

Incoming: Give its thermal shift delta Tm value. Item: CC(C)NC(=O)C1CCC(n2c(NC(=O)c3ccc(F)cc3)nc3ccc(CN4CCC(C(C)(C)O)CC4)cc32)CC1 (stereo not given) [Belizatinib (TSR-011)]
Outgoing: 8.98

Incoming: Give its thermal shift delta Tm value. Item: CC(C)(C)c1ccc(S(=O)(=O)/C=C/C#N)cc1
Outgoing: 0.97

Incoming: Give its thermal shift delta Tm value. Item: Cc1[nH]nc2ccc(-c3cncc(OC[C@@H](N)Cc4ccccc4)c3)cc12
Outgoing: 6.97

Incoming: Give its thermal shift delta Tm value. Item: CN1CC[C@H](c2c(O)cc(O)c3c(=O)cc(-c4ccccc4Cl)oc23)[C@H](O)C1 [Flavopiridol HCl]
Outgoing: 4.9

Incoming: Give its thermal shift delta Tm value. Item: Nc1cc(C(F)(F)F)c(-c2cc(N3CCOCC3)nc(N3CCOCC3)n2)cn1 [Buparlisib (BKM120, NVP-BKM120)]
Outgoing: 0.95

Incoming: Give its thermal shift delta Tm value. Item: Nc1ccc(-c2ccc3ncc4ccc(=O)n(-c5cccc(C(F)(F)F)c5)c4c3c2)cn1 [Torin 2]
Outgoing: 9.25

###

- Tested on: LOC_OS03G12390-cb001
- protocolSummary: thermal shift delta Tm vs DMSO control; higher = stronger stabilization (binding)
- experimentalSetup: 12.5 µM; protein concentration 2 µM
What thermal shift delta Tm was measured for each of the following?
Could you give me the number in °C? Just the number is fine.

Incoming: Give its thermal shift delta Tm value. Item: COc1cc2ncnc(Nc3cccc(Cl)c3)c2cc1OC
Outgoing: 2.86

Incoming: Give its thermal shift delta Tm value. Item: CC(C)(C)c1ccc(S(=O)(=O)/C=C/C#N)cc1
Outgoing: -0.99

Incoming: Give its thermal shift delta Tm value. Item: C[C@H](NC(=O)c1c(N)nn2cccnc12)c1cc2cccc(C#Cc3cnn(C)c3)c2c(=O)n1-c1ccccc1
Outgoing: -0.11

Incoming: Give its thermal shift delta Tm value. Item: COC(=O)[C@]12CCC(C)(C)C[C@H]1[C@H]1C(=O)C=C3[C@@]4(C)C=C(C#N)C(=O)C(C)(C)[C@@H]4CC[C@@]3(C)[C@]1(C)CC2
Outgoing: -11.6

Incoming: Give its thermal shift delta Tm value. Item: CN1CCC(COc2cnc(-c3cccc(Cn4nc(-c5cccc(C#N)c5)ccc4=O)c3)nc2)CC1
Outgoing: -0.02

Incoming: Give its thermal shift delta Tm value. Item: CCCNC(=O)c1cn2ncnc(Nc3cc(C(=O)NC4CC4)ccc3C)c2c1C
Outgoing: -0.14

Incoming: Give its thermal shift delta Tm value. Item: COc1cc(-c2cc(-c3ccc(N4CCNCC4)cc3)cnc2C)cc(OC)c1OC
Outgoing: -0.01

Incoming: Give its thermal shift delta Tm value. Item: c1nc2c(NC3CCCCC3)nc(Nc3ccc(N4CCOCC4)cc3)nc2[nH]1
Outgoing: 9.58

Incoming: Give its thermal shift delta Tm value. Item: CCCCOc1c(C(=O)c2c(F)cc(C)cc2F)c[nH]c2nncc1-2
Outgoing: 2.18

Incoming: Give its thermal shift delta Tm value. Item: Cc1nc(N)sc1-c1ccnc(Nc2ccc(N3CCOCC3)cc2)n1
Outgoing: 3.79

Incoming: Give its thermal shift delta Tm value. Item: CN1CCN(C2CCN(C(=O)Nc3cc(Oc4ccc(NC(=O)C5(C(=O)Nc6ccc(F)cc6)CC5)c(F)c4)ccn3)CC2)CC1 [Golvatinib (E7050)]
Outgoing: 0.04

Incoming: Give its thermal shift delta Tm value. Item: N#Cc1ccc2[nH]c(O)c(-c3ccc(CN4CCOCC4)cn3)c2c1
Outgoing: 2.43

Incoming: Give its thermal shift delta Tm value. Item: C[C@@H]1COCCN1c1cc(C2([S@](C)(=N)=O)CC2)nc(-c2cc[nH]c3nccc2-3)n1
Outgoing: -0.31

Incoming: Give its thermal shift delta Tm value. Item: CNC(=O)c1ccc(Nc2ncc(C(F)(F)F)c(NCc3nccnc3N(C)S(C)(=O)=O)n2)cc1
Outgoing: 5.45

Incoming: Give its thermal shift delta Tm value. Item: Cc1ccc(CNc2ncnc3ccc(-c4ccc(CO)o4)cc23)o1
Outgoing: 1.65

###

- Test system: LOC_OS01G60700-cb002
- protocolSummary: thermal shift delta Tm vs DMSO control; higher = stronger stabilization (binding)
- experimentalSetup: 12.5 µM; protein concentration 2 µM
propertyName: thermal shift delta Tm

Incoming: Give its thermal shift delta Tm value. Item: N[C@@H]1CCCN(c2c(/C=C3\SC(=O)NC3=O)cccc2-c2ccccc2)C1
Outgoing: 0.8 °C

Incoming: Give its thermal shift delta Tm value. Item: CC(C)NC[C@@H](C(=O)N1CCN(c2ncnc3c2[C@H](C)C[C@H]3O)CC1)c1ccc(Cl)cc1
Outgoing: 1.12 °C

Incoming: Give its thermal shift delta Tm value. Item: CCc1nc(C(N)=O)c(Nc2ccc(N3CCC(N4CCN(C)CC4)CC3)c(OC)c2)nc1NC1CCOCC1
Outgoing: 1.96 °C

Incoming: Give its thermal shift delta Tm value. Item: O=C(c1ccc(F)c(F)c1Nc1ccc(I)cc1F)N1CC(O)([C@@H]2CCCCN2)C1
Outgoing: 1.16 °C

Incoming: Give its thermal shift delta Tm value. Item: O=C1NC(=O)[C@@H](c2cn3c4c(cccc24)CCC3)[C@@H]1c1c[nH]c2ccccc12 [Tivantinib (ARQ 197)]
Outgoing: 0.02 °C

Incoming: Give its thermal shift delta Tm value. Item: Cc1c[nH]c(/C=C2\C(=O)Nc3ccccc32)c1CCC(=O)O
Outgoing: 0.67 °C

Incoming: Give its thermal shift delta Tm value. Item: O=c1c(O)c(-c2ccc(O)c(O)c2)oc2cc(O)cc(O)c12
Outgoing: 0.35 °C

Incoming: Give its thermal shift delta Tm value. Item: CCS(=O)(=O)N1CC(CC#N)(n2cc(-c3ncnc4[nH]ccc34)cn2)C1
Outgoing: 1.26 °C

Incoming: Give its thermal shift delta Tm value. Item: CS(=O)(=O)c1cccc(CNc2nc(Nc3ccc4c(c3)CCC(=O)N4)ncc2C(F)(F)F)c1
Outgoing: 0.7 °C

Incoming: Give its thermal shift delta Tm value. Item: Cc1ccc(CNc2ncnc3ccc(-c4ccc(CO)o4)cc23)o1
Outgoing: 0.78 °C

Incoming: Give its thermal shift delta Tm value. Item: Clc1ccc(C2(c3ccc(-c4cn[nH]c4)cc3)CCNCC2)cc1
Outgoing: 0.54 °C

Incoming: Give its thermal shift delta Tm value. Item: CNC(=O)c1ccccc1Nc1cc(Nc2ccc(N3CCOCC3)cc2OC)ncc1C(F)(F)F
Outgoing: 1.89 °C

Incoming: Give its thermal shift delta Tm value. Item: CCn1c(=O)c(-c2ccc(Cl)cc2Cl)cc2cnc(Nc3ccc(N4CCNCC4)c(F)c3)nc21
Outgoing: 1.12 °C

Incoming: Give its thermal shift delta Tm value. Item: CN1CCN(Cc2ccc(NC(=O)Nc3ccc(Oc4ccnc(N)n4)cc3)cc2C(F)(F)F)CC1
Outgoing: 1.34 °C

Incoming: Give its thermal shift delta Tm value. Item: NC(=O)c1ccc(N(C(N)=O)c2c(F)cccc2F)nc1-c1ccc(F)cc1F
Outgoing: 0.91 °C

Incoming: Give its thermal shift delta Tm value. Item: COc1cc2ncnc(Nc3ccc(F)c(Cl)c3)c2cc1OCCCN1CCOCC1 [Gefitinib (ZD1839)]
Outgoing: 1.04 °C

Incoming: Give its thermal shift delta Tm value. Item: CS(=O)(=O)CCNCc1ccc(-c2ccc3ncnc(Nc4ccc(OCc5cccc(F)c5)c(Cl)c4)c3c2)o1
Outgoing: 1.03 °C

Incoming: Give its thermal shift delta Tm value. Item: Nc1cccc(-c2cc3c(Oc4cccc(O)c4)ncnc3[nH]2)c1
Outgoing: 1.51 °C

Incoming: Give its thermal shift delta Tm value. Item: CN(C)C[C@@H]1CCn2cc(c3ccccc32)C2=C(C(=O)NC2=O)c2cn(c3ccccc23)CCO1
Outgoing: 2.42 °C

Incoming: Give its thermal shift delta Tm value. Item: Cc1[nH]c(/C=C2\C(=O)Nc3ccc(S(=O)(=O)N(C)c4cccc(Cl)c4)cc32)c(C)c1C(=O)N1CCN(C)CC1
Outgoing: 0.86 °C

Incoming: Give its thermal shift delta Tm value. Item: CN1CCN(c2ccc3nc(-c4c(N)c5c(F)cccc5[nH]c4=O)[nH]c3c2)CC1 [Dovitinib (TKI-258) Dilactic Acid]
Outgoing: 1.33 °C

Incoming: Give its thermal shift delta Tm value. Item: COc1cc2nccc(Oc3ccc(NC(=O)Nc4cc(C)on4)c(Cl)c3)c2cc1OC
Outgoing: 0.04 °C

Incoming: Give its thermal shift delta Tm value. Item: C[C@]1(O)C[C@@H](c2nc(-c3ccc4ccc(-c5ccccc5)nc4c3)c3c(N)nccn32)C1
Outgoing: 1.07 °C

Incoming: Give its thermal shift delta Tm value. Item: CC(C)(O)CC(=O)NCCn1ccc2ncnc(Nc3ccc(Oc4cccc(C(F)(F)F)c4)c(Cl)c3)c21
Outgoing: 0.11 °C

Incoming: Give its thermal shift delta Tm value. Item: CN1CCN(CCOc2cc(OC3CCOCC3)c3c(Nc4c(Cl)ccc5c4OCO5)ncnc3c2)CC1
Outgoing: 1.11 °C

Incoming: Give its thermal shift delta Tm value. Item: Oc1c(F)cc(-c2cnccc2-c2ccc(N3CCOCC3)cc2)cc1F
Outgoing: 0.34 °C

Incoming: Give its thermal shift delta Tm value. Item: O=C1CCc2c(Oc3ccc4c(c3)[C@@H]3[C@H](O4)[C@H]3c3nc4cc(C(F)(F)F)ccc4[nH]3)ccnc2N1
Outgoing: 1.67 °C

Incoming: Give its thermal shift delta Tm value. Item: CCc1cccc(CC)c1NC(=O)N1Cc2[nH]nc(NC(=O)c3ccc(N4CCN(C)CC4)cc3)c2C1
Outgoing: 0.44 °C

Incoming: Give its thermal shift delta Tm value. Item: Fc1ccc2[nH]ccc2c1-c1nc(N2CCOCC2)c2sc(CN3CCN(CC4CC4)CC3)cc2n1
Outgoing: 1.22 °C

Incoming: Give its thermal shift delta Tm value. Item: Nc1nccc(Oc2ccc(NC(=O)c3c[nH]cc(-c4ccc(F)cc4)c3=O)cc2F)c1Cl
Outgoing: 1.09 °C

Incoming: Give its thermal shift delta Tm value. Item: C=CC(=O)Nc1cccc(C)c1Nc1ncc2cc(-c3c(Cl)c(OC)cc(OC)c3Cl)ccc2n1
Outgoing: 0.26 °C

Incoming: Give its thermal shift delta Tm value. Item: Cn1c(=O)c(Oc2ccc(F)cc2F)cc2cnc(NC(CCO)CCO)nc21
Outgoing: 1.45 °C
